# Lookup of reported abundance fitness keyed by entry
B1: FERM and PDZ domain-containing protein 4, residues 75 to 154; numbered along this chain, Q14CM0 (parent)
chain: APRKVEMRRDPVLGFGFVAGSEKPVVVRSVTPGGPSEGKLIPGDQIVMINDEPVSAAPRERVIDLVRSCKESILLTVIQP

Variants of: B1
Assay: abundance fitness (aPCA) (normalised: wild type 0, dead -1); higher = more abundant; growth selection in yeast, the domain comes from the species named
Settings: Homo sapiens
Answer with the value's number alone.

[
  {
    "variant-key": "V5L",
    "abundance fitness": -0.154
  }
]

Looking up V30P , I see its abundance fitness listed as -0.864

Looking up P42G , I see its abundance fitness listed as -0.237

Looking up E6L , I see its abundance fitness listed as -0.018
